Data provenance is patent US8071581B2.

Target: MET kinase (c-MET), kinase domain of human Met (Homo sapiens, UniProt P08581)
Sequence (P08581 1078-1345 limits assumed): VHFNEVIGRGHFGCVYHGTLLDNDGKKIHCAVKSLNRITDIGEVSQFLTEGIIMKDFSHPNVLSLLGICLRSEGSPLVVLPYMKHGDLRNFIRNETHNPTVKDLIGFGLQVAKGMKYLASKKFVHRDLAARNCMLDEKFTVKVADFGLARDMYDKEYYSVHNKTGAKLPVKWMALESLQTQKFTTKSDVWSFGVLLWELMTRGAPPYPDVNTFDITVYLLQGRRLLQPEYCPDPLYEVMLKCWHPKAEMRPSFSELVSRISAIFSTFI
recorded-metric: IC50

Answered cases to consult:
INSERT INTO measurements (line_notation, value_measured) VALUES
  ('NC(=O)c1ccc(F)c(-c2ccc3nnc(Cc4ccc5ncccc5c4)n3n2)c1', '100 to 1000 nM'),
  ('Fc1ccc(-c2ccc3nnc(Cc4ccc5ncccc5c4)n3n2)cc1C(F)(F)F', '100 to 1000 nM');

Provide the reported IC50 of each entry below, same order.
1. Cc1ccc2nnc(Cc3ccc4ncc(-n5cccn5)cc4c3)n2n1
2. Cc1ccc2nnc(Cc3ccc4ncc(-c5cnn(CC(=O)O)c5)cc4c3)n2n1
3. CN(C)c1cccc(-c2ccc3nnc(Cc4ccc5ncccc5c4)n3n2)c1
4. O=C(c1ccc(-c2ccc3nnc(Cc4ccc5ncccc5c4)n3n2)cc1)N1CCOCC1

stdout:
["100 to 1000 nM", "< 100 nM", "100 to 1000 nM", "100 to 1000 nM"]

###

Target: MET kinase (c-MET), kinase domain of human Met (Homo sapiens, UniProt P08581)
pIC50: −log10 of the molar value.
Provide the reported pIC50 of each item.

Guide cases for pIC50, answers given:
INSERT INTO assay_data (line_notation, value_measured) VALUES
  ('NC(=O)c1ccc(Oc2ccc3nnc(Cc4ccc5ncccc5c4)n3n2)cc1', '5.00 to 6.00'),
  ('Nc1nc2ccc(Cc3nnc4ccc(-c5ccccc5)nn34)cc2s1', '6.00 to 7.00');

List reported pIC50 for each of these molecules:
1. N#Cc1cc(-c2ccc3nnc(Cc4ccc5ncccc5c4)n3n2)ccc1F
2. c1ccc(-c2ccc3nnc(Cc4ccc5ncsc5c4)n3n2)cc1
3. Cc1cc2ncccc2cc1Cc1nnc2ccc(-c3cnn(C)c3)nn12
4. Cn1cc(-c2cnc3ccc(Cc4nnc5cccnn45)cc3c2)cn1
5. Cc1ccc2nnc(Cc3ccc4ncc(-c5cnn(C6CN(S(C)(=O)=O)C6)c5)cc4c3)n2n1

stdout:
1. 6.00 to 7.00
2. 6.00 to 7.00
3. > 7.00
4. > 7.00
5. > 7.00

// for each molecule below, give its pIC50
1. Cc1ccc2nnc(Cc3c[nH]c4ncc(-c5cnn(C)c5)cc34)n2n1
2. Cc1ccc2nnc(Cc3ccc4ncc(-c5cnn(C6CNC6)c5)cc4c3)n2n1
3. CS(=O)(=O)c1ccc(-c2ccc3nnc(Cc4ccc5ncccc5c4)n3n2)cc1
4. Cc1ccc2nnc(Cn3ccc4ncc(-c5cnn(C)c5)cc43)n2n1

stdout:
["> 7.00", "> 7.00", "6.00 to 7.00", "5.00 to 6.00"]

###

Target: MET kinase (c-MET), kinase domain of human Met (Homo sapiens, UniProt P08581)
pIC50: −log10 of the molar value.
Would you mind telling me the reported pIC50 of each entry?

INSERT INTO results (line_notation, value_measured) VALUES
  ('Cc1ccc2nnc(Cc3ccc4ncc(-n5ccnc5)cc4c3)n2n1', '6.00 to 7.00'),
  ('CCc1ccc2nnc(Cc3ccc4ncc(-c5cnn(C6CN(CC)C6)c5)cc4c3F)n2n1', '> 7.00'),
  ('CNc1ccc(-c2ccc3nnc(Cc4ccc5ncccc5c4)n3n2)cc1', '> 7.00'),
  ('O=S(=O)(c1ccc(-c2ccc3nnc(Cc4ccc5ncccc5c4)n3n2)cc1)N1CCCC1', '6.00 to 7.00'),
  ('CNC(=O)c1ccc(-c2ccc3nnc(Cc4ccc5ncccc5c4)n3n2)cc1', '> 7.00'),
  ('CCN1CC(n2cc(-c3cnc4cc(F)c(Cc5nnc6ccc(C)nn56)c(F)c4c3)cn2)C1', '> 7.00');

I'm hoping you can list pIC50 for every compound here, please.
1. Cc1ccc2nnc(Cc3ccc4ncc(-c5cc(F)cc(F)c5)cc4c3)n2n1
2. Oc1ccc(Cc2nnc3ccc(Cl)nn23)cc1
3. c1ccc(-c2ccc3nnc([C@H]4C[C@@H]4c4ccc5ncccc5c4)n3n2)cc1

stdout:
6.00 to 7.00
5.00 to 6.00
4.30 to 5.00

###

The following are reported pIC50 results, target or system MET kinase (c-MET), kinase domain of human Met (Homo sapiens, UniProt P08581).
pIC50: −log10 of the molar value.

Use these answered entries as a reference point.
INSERT INTO measurements (compound, value_measured) VALUES
  ('CCNS(=O)(=O)c1cccc(-c2ccc3nnc(Cc4ccc5ncccc5c4)n3n2)c1 [compound 3]', '> 7.00'),
  ('CCn1cc(-c2cnc3ccc(Cc4nnc5ccc(C)nn45)cc3c2)cn1 [compound 162]', '> 7.00'),
  ('c1cnc2ccc(Cc3nnc4ccc(C5CC5)nn34)cc2c1 [compound 109]', '6.00 to 7.00'),
  ('Cn1cc(-c2cnc3ccc(Cc4nnc5nccnn45)cc3c2)cn1 [compound 179]', '> 7.00'),
  ('CS(=O)(=O)c1cccc(-c2ccc3nnc(Cc4ccc5ncccc5c4)n3n2)c1 [compound 49]', '> 7.00'),
  ('Fc1ccc(Oc2ccc3nnc(Cc4ccc5ncccc5c4)n3n2)cc1 [compound 6]', '6.00 to 7.00'),
  ('Cc1ccc2nnc(C(C)c3ccc4ncc(-c5cnn(C)c5)cc4c3)n2n1 (stereo not drawn) [compound 191]', '> 7.00'),
  ('Cc1ccc2nnc(Cc3ccc4ncc(-c5c[nH]nc5C)cc4c3)n2n1 [compound 150]', '6.00 to 7.00'),
  ('Cc1ccc2nnc(Cc3ccc4ncc(-c5cn[nH]c5)cc4c3)n2n1 [compound 125]', '> 7.00'),
  ('CNC(=O)c1ccc(-c2ccc3nnc(C(C)c4ccc5ncsc5c4)n3n2)cc1F (stereo not drawn) [compound 82]', '> 7.00');

// each compound listed below needs its pIC50
1. Cc1ccc2nnc(Cc3ccc4ncc(-c5cccc(C#N)c5)cc4c3)n2n1 [compound 130]
2. COCCn1cc(-c2cnc3ccc(Cc4nnc5ccc(C)nn45)cc3c2)cn1 [compound 147]
3. Cn1cnc2ccc(Cc3nnc4ccc(-c5ccccc5)nn34)cc21 [compound 68]
4. Cc1ccc2nnc(Cc3ccc4ncc(-c5cccnc5)cc4c3)n2n1 [compound 131]
5. Cc1ccc2cc(Cc3nnc4ccc(-c5ccccc5)nn34)ccc2n1 [compound 38]

stdout:
["> 7.00", "> 7.00", "6.00 to 7.00", "> 7.00", "5.00 to 6.00"]

###

Test system: GTL16
Assay: GTL16 cell assay (EC50)
Type: cell-based
Settings: Homo sapiens, GTL 16; Table 1
recorded-metric: EC50

INSERT INTO assay_data (line_notation, target_or_test_system, value_measured) VALUES
  ('Cn1cc(-c2ccc3nnc(Cc4ccc5ncsc5c4)n3n2)cn1', 'GTL16', '< 0.1 µM'),
  ('NS(=O)(=O)c1ccc(Oc2ccc3nnc(Cc4ccc5ncccc5c4)n3n2)cc1', 'GTL16', '10 to 50 µM'),
  ('Cn1cc(-c2ccc3nnc(Cc4c[nH]c5ncccc45)n3n2)cn1', 'GTL16', '< 0.1 µM'),
  ('Cc1ccc(-c2ccc3nnc(Cc4ccc5ncccc5c4)n3n2)cc1', 'GTL16', '< 0.1 µM'),
  ('CN(C)S(=O)(=O)c1cccc(-c2ccc3nnc(Cc4ccc5ncccc5c4)n3n2)c1', 'GTL16', '< 0.1 µM'),
  ('CNC(=O)c1ccc(-c2ccc3nnc(Cc4ccc5ncsc5c4)n3n2)cc1F', 'GTL16', '0.1 to 1 µM');

stdin: Item under review: CC(C)NC(=O)c1ccc(-c2ccc3nnc(Cc4ccc5ncsc5c4)n3n2)cc1F . Reported EC50?
stdout: 0.1 to 1 µM

###

Please respond with reported IC50 for every item in the list.
Biological target: MET kinase (c-MET), kinase domain of human Met (Homo sapiens)
Experiment: MET luminescence-based enzyme assay (Kinase-Glo)

Example cases with answers are listed next.
INSERT INTO assay_data (line_notation, value_measured) VALUES
  ('NCc1cccc(-c2ccc3nnc(Cc4ccc5ncccc5c4)n3n2)c1', '< 100 nM'),
  ('Cc1ccc2nnc(Cc3ccc4ncc(-c5ccc(C(=O)O)cc5)cc4c3)n2n1', '100 to 1000 nM'),
  ('CCc1ccc2nnc(Cc3cc4cc(-c5cnn(C)c5)cnc4cc3F)n2n1', '< 100 nM');

Each of the following entries comes with a recorded value; kindly state IC50 for each.
1. COc1ccc2nnc(Cc3ccc4ncc(-c5cnn(C)c5)cc4c3)n2n1
2. CS(=O)(=O)c1ccc(Oc2ccc3nnc(Cc4ccc5ncccc5c4)n3n2)cc1
3. Cc1ccc2nnc(Cc3ccc4ncc(Br)cc4c3)n2n1
4. Cc1ccc2nnc(Cc3ccc4ncc(-c5cnn(CCC(N)=O)c5)cc4c3)n2n1
5. c1ccc(-c2ccc3nnc(Cc4ccc5ncccc5c4)n3n2)cc1
6. Cn1cc(-c2cnc3ccc(Cc4nnc5ccc(N)nn45)cc3c2)cn1
7. Cc1ccc2nnc(Cc3ccc4ncc(-c5cnn(C6(C(=O)O)CCC6)c5)cc4c3)n2n1

stdout:
< 100 nM
1000 to 10000 nM
100 to 1000 nM
< 100 nM
100 to 1000 nM
< 100 nM
< 100 nM

Would you be so kind as to report IC50 for each listed record?
1. Cc1ccc2nnc(Cc3c(F)cc4ncc(-c5cnn(CCN6CCOCC6)c5)cc4c3F)n2n1
2. Cn1cc(-c2cnc3ccc(Cc4nnc5ccc(C(F)(F)F)nn45)cc3c2)cn1

stdout:
< 100 nM
< 100 nM
